Every entry's value here was drawn from ChEMBL document CHEMBL5604063.

ASSAYED_SYSTEM: Genome polyprotein (dengue virus type 2, UniProt P29990)
Sequence (P29990 1346-1475 limits assumed): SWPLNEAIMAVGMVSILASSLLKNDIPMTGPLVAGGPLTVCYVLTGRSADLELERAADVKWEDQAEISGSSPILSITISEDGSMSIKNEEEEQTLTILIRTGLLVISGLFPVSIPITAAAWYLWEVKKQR
Sequence (P29990 1476-2093 limits assumed): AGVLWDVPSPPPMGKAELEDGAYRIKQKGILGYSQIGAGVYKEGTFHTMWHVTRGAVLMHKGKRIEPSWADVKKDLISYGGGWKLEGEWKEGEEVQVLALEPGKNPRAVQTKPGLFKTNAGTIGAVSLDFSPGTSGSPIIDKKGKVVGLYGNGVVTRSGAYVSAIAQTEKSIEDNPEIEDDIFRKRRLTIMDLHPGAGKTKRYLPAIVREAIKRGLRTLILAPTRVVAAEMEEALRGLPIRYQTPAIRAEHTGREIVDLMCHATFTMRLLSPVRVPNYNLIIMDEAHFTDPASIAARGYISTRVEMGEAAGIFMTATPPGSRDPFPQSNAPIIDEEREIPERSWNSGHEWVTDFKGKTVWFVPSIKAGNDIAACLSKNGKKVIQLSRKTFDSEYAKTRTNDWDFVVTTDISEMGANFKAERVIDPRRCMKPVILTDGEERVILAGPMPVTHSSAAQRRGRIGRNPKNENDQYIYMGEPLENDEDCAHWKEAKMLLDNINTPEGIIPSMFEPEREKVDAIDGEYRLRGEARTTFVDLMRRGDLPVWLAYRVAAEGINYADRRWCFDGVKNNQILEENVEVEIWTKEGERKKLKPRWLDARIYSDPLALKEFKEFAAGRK
Format: functional, Thailand/16681/1984

>  <SMILES_STR>
O=C(NCC(F)F)[C@H](Nc1ccc2c(c1)CNC2)c1cc(Cl)cc2c1CCC2

>  <READING_QUALIFIER>
>

>  <IC50, µM>
99.5

$$$$
>  <SMILES_STR>
N#CC1(S(=O)(=O)N2CCC([C@H](NC(=O)OCc3ccccc3)C(=O)Nc3cccc(CN)c3)CC2)CCC1

>  <READING_QUALIFIER>
=

>  <IC50, µM>
81.8

$$$$
>  <SMILES_STR>
CNCc1ccc(NC(=O)c2cc(Cl)cc3[nH]ncc23)cc1

>  <READING_QUALIFIER>
>

>  <IC50, µM>
99.5

$$$$
>  <SMILES_STR>
NC[C@]1(F)C[C@@H](NC(=O)c2cc(Cl)cc(NC(=O)OCc3ccccc3)c2)C1

>  <READING_QUALIFIER>
=

>  <IC50, µM>
66.6

$$$$
>  <SMILES_STR>
Cc1c(C(=O)Nc2cccc(-n3nn[nH]c3=O)c2)cc(C2CC2)n1C

>  <READING_QUALIFIER>
>

>  <IC50, µM>
99.5

$$$$
>  <SMILES_STR>
Cc1oc2nc(-c3cc(Cl)cc(NC(=O)OCc4ccccc4)c3)ccc2c1C(=O)O

>  <READING_QUALIFIER>
=

>  <IC50, µM>
16.6

$$$$
>  <SMILES_STR>
O=S(=O)(Cc1nnc(Cc2ccccc2)o1)c1ccc(O)cc1

>  <READING_QUALIFIER>
>

>  <IC50, µM>
99.5

$$$$
>  <SMILES_STR>
C[C@@]1(CNC(=O)c2cc(Cl)cc(NC(=O)OCc3ccccc3)c2)CNCCOC1

>  <READING_QUALIFIER>
>

>  <IC50, µM>
99.5

$$$$
>  <SMILES_STR>
C[C@H]1C(=O)Nc2ccc(C(=O)Nc3ccc4c(c3)CNC4)cc21

>  <READING_QUALIFIER>
=

>  <IC50, µM>
34.5

$$$$
>  <SMILES_STR>
CNC(=O)[C@H](Nc1ccccn1)c1cc(Cl)cc(CN)c1

>  <READING_QUALIFIER>
>

>  <IC50, µM>
99.5

$$$$
